These measurements were taken from ChEMBL document CHEMBL1201862.

# TGT: Induced myeloid leukemia cell differentiation protein Mcl-1 (Homo sapiens)
# Sequence (Q07820 whole entry): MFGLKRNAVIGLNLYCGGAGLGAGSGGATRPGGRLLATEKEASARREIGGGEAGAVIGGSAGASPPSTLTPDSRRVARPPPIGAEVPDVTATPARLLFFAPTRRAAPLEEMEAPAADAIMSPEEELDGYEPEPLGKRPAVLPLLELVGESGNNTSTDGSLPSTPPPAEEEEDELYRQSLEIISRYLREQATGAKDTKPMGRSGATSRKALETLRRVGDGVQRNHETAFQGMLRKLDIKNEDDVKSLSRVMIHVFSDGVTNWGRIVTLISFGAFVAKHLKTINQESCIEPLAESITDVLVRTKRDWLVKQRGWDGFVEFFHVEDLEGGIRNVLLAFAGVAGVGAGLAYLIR
# Format: functional
Activity calls are given as the source filed them.
What IC50 was measured for each of the following?

Count: 6. Required value per item: IC50.
1. O=C1NC(=S)S/C1=C\C=C\c1ccc([N+](=O)[O-])o1
2. O=C(COC(=O)c1cc(-c2ccco2)nc2ccccc12)NCc1ccc2c(c1)OCO2
3. COc1ccc(C2=NN(c3nc(-c4ccccc4)c(CC(=O)O)s3)C(c3ccco3)C2)cc1 (configuration not stated)
4. O=C(Cn1nc(C(=O)O)c2ccccc2c1=O)Nc1ccc2c(c1)C(=O)c1ccccc1C2=O
5. COc1cc(C(Nc2ccccn2)c2ccc3ccc(C)nc3c2O)cc(OC)c1O (configuration not stated)
6. COc1ccc(OC)c(/C=N/c2oc(-c3ccco3)c(-c3ccco3)c2C#N)c1

Result ::
1: 1.92 µM (active); 2: < 0.4 µM (active); 3: 6.5 µM (active); 4: 4.02 µM (active); 5: 0.786 µM (active); 6: 6.88 µM (active)

Query :: // IC50 lookup, key: Nc1ncnc2oc(-c3ccco3)c(-c3ccco3)c12
Result :: 4.12 µM (active)
